- target-of-assay: T1, PVRIG (FACS-based competition assay of FIGS. 7 and 15) (Homo sapiens, UniProt Q6DKI7)
- T1 construct: made because the format of the assay is only described in U.S. Ser. No. 15/048,967; also called human PVRIG
- T1 sequence (receptor, looked up): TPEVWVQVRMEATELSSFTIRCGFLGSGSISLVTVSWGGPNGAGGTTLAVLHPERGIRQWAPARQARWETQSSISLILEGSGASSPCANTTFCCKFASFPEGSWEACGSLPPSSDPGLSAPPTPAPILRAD
- assay-notes: FACS-based competition assay of PVRIG blocking; format and competitor not given
Please provide measured pIC50 for the entries that follow.
Give bare numbers, as −log10 of the molar value.

>>> measured("CHA.7.516 (antibody, V domains shown) VH: QVQLQQSGPELVRPGVSVKISCKVSGYTFTDYVMHWVKQSHAKSLEWIGIISPYSGNTNYNQNFKGKATMTVDKSSSTAYMALARLTSEDSAIYYCAREGDLPMFAYWGQGTLVTVSA VL: QIVLTQSPTIMSASPGEKVTMTCSASSSVSYIYWYQQNPGSSPRLLIYDTSILASGVPFRFSGSGSGTSYSLTISRMEAEDAATYYCQQWTSYPLTFGSGTKLELK")
7.48

What measured pIC50 goes with CHA.7.545 (antibody, V domains shown) VH: QIQLVQSGPDLKKPGETVKISCKASGYTFTTYGMSWVKQAPGRGLKWMGWINTYSGVSTFPDDFKGRFAFSLETSASTAYLQINNLKNEDSATYFCARLGMGSTTGAGYFDVWGTGTTVTVSS VL: DIVLTQSPAIMSASPGEKVTMTCSASSSVSSWYLHWYQQKSGASPKLWIYGTSNLASGVPARFSGSGSGTSYSLTISSVEAEDAATYYCQQYRSDPYTFGSGTKLEIK ?
7.02
